target: ligand binding domain of human FXR (Homo sapiens (Human)); assay: FXR ligand binding assay (LanthaScreen TR-FRET, SRC2-2 peptide recruitment); conditions: extent of activation relative to GW4064; read-out: % Efficacy
Sequence (Q96RI1 262-486): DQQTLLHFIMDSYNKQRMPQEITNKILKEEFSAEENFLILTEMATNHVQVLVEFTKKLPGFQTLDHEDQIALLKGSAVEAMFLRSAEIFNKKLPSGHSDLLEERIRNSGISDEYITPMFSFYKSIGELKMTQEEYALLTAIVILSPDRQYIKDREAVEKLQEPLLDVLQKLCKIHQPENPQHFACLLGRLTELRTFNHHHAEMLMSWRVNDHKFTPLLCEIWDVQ
Answer each item with its documented Emax.
Quick reminder: number only, in %, skip the unit.

Fill in the recorded Emax for this compound, with ligand binding domain of human FXR (Homo sapiens (Human)) as test system: Cc1cc(C(=O)NCCP(=O)(OCOC(=O)C(C)(C)C)OCOC(=O)C(C)(C)C)ccc1N1C[C@@H]2C[C@H]1C[C@H]2OCc1c(-c2c(Cl)cccc2Cl)noc1C1CC1 [Compound I-174]
161

Follow-up entry: O=C(O)c1cc(C2CCOCC2)c2nc(N3C[C@@H]4C[C@H]3C[C@H]4OCc3c(C4CCC5(CC4)CC5)noc3C3CC3)sc2c1 [Compound I-279]
112

Follow-up entry: O=C(O)c1cc(F)c2nc(N3C[C@@H]4C[C@H]3C[C@H]4OC(=O)c3c(-c4c(Cl)cccc4Cl)noc3C3CC3)sc2c1 [Compound I-1]
148

Follow-up entry: O=C(NS(=O)(=O)C1CC1)c1cnc(N2C[C@@H]3C[C@H]2C[C@H]3OCc2c(-c3c(Cl)cccc3Cl)noc2C2CC2)c(F)c1 [Compound I-207]
152

Follow-up entry: O=C(NS(=O)(=O)[C@@H]1CCC[C@H]1O)c1ccc(N2C(=O)[C@@H]3C[C@H]2C[C@H]3OCc2c(-c3c(Cl)cccc3Cl)noc2C2CC2)cn1 [Compound I-350]
170

Follow-up entry: Cc1cccc(Cl)c1-c1noc(C2CC2)c1CO[C@@H]1C[C@@H]2C[C@H]1CN2c1ccc(C(=O)O)c(F)c1 [Compound I-115]
144

Follow-up entry: O=C(O)c1ccc([N+]2([O-])C[C@@H]3C[C@H]2C[C@H]3OCc2c(-c3c(Cl)cccc3Cl)noc2C2CC2)cc1 (stereo partly drawn) [Compound I-127]
136

Follow-up entry: O=C(O)c1ccc(N2C(=O)[C@@H]3C[C@H]2C[C@H]3OCc2c(-c3c(Cl)cccc3Cl)noc2C2CC2)c(F)c1 [Compound I-315]
157

Follow-up entry: O=C(O)c1ccc(N2C(=O)[C@@H]3C[C@H]2C[C@H]3OCc2c(-c3c(Cl)cccc3Cl)noc2C2CC2)cc1 [Compound I-244]
130

Follow-up entry: O=C(O)CNC(=O)c1ccc(N2C[C@@H]3C[C@H]2C[C@H]3OCc2c(-c3c(Cl)cccc3Cl)noc2C2CC2)cc1F [Compound I-167]
152

Follow-up entry: Cc1cccc(Cl)c1-c1noc(C2CC2)c1CO[C@@H]1C[C@@H]2C[C@H]1CN2c1ccc(CCC(=O)NS(C)(=O)=O)cc1F [Compound I-241]
176

Follow-up entry: CS(=O)(=O)NC(=O)c1ccc(N2C[C@@H]3C[C@H]2C[C@H]3OCc2c(-c3c(Cl)cccc3Cl)noc2C2CC2)cc1 [Compound I-58]
153

---

biological target: human Farnesoid X receptor ligand-binding domain/Gal4 DNA binding domain chimera (Homo sapiens (Human)); experiment: Cell-based assay of FXR activation (FXR-UAS-bla HEK 293T beta-lactamase reporter); settings: cellular FXR beta-lactamase reporter assay, FXR-UAS-bla HEK 293T cells, 16 h; pEC50 = -log EC50
Sequence (Q96RI1 262-486, change not shown): as the sequence (Q96RI1 262-486) above
Sequence (P04386 1-147 partner): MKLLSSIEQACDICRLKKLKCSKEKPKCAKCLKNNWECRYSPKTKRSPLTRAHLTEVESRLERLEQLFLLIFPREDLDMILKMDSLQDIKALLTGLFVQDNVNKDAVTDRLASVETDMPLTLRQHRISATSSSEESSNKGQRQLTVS
parameter_measured: pEC50
# pEC50: negative log10 of molar concentration; output just the value

Sample O=C(NS(=O)(=O)CC1CCOCC1)c1ccc(N2C(=O)[C@@H]3C[C@H]2C[C@H]3OCc2c(-c3c(Cl)cccc3Cl)noc2C2CC2)cc1 — what was its pEC50?
8.30

Follow-up entry: O=C(O)c1ccc(N2C[C@@H]3C[C@H]2C[C@H]3OCc2c(-c3c(Cl)cccc3Cl)noc2C2CC2)c(C2CC2)c1
8.40

Follow-up entry: CCCS(=O)(=O)NC(=O)c1ccc(N2C[C@@H]3C[C@H]2C[C@H]3OCc2c(-c3c(Cl)cccc3Cl)noc2C2CC2)cc1F
9.70

Follow-up entry: O=C(O)c1cc(OCC(F)(F)F)c2nc(N3C[C@@H]4C[C@H]3C[C@H]4OC(=O)c3c(-c4c(Cl)cccc4Cl)noc3C3CC3)sc2c1
8.30

Follow-up entry: O=C(O)c1ccc([N+]2([O-])C[C@@H]3C[C@H]2C[C@H]3OCc2c(-c3c(Cl)cccc3Cl)noc2C2CC2)cc1 (stereo partly shown)
8.60

Follow-up entry: Cc1cc(N2C(=O)[C@@H]3C[C@H]2C[C@H]3OCc2c(-c3c(Cl)cccc3Cl)noc2C2CC2)ccc1C(=O)O
8.10

Follow-up entry: O=C1NCCc2cc(N3C[C@@H]4C[C@H]3C[C@H]4OCc3c(-c4c(Cl)cccc4Cl)noc3C3CC3)ccc21
8.40

Follow-up entry: C[C@@H]1[C@@H]2C[C@@H](C[C@H]2OCc2c(-c3c(Cl)cccc3Cl)noc2C2CC2)N1c1ccc(C(=O)O)cc1
9.10

Follow-up entry: O=C(O)CNC(=O)c1ccc(N2C(=O)[C@@H]3C[C@H]2C[C@H]3OCc2c(-c3c(Cl)cccc3Cl)noc2C2CC2)cc1
6.20

Follow-up entry: O=C(O)c1ccc(N2C(=O)[C@@H]3C[C@H]2C[C@H]3OCc2c(-c3c(Cl)cccc3Cl)noc2C2CC2)cc1C1CC1
8.00

Follow-up entry: O=C(O)c1ccc(N2C[C@@H]3C[C@H]2C[C@H]3OCc2c(-c3ccccc3C(F)(F)F)noc2C2CC2)cc1
8.70
